# assaySystem: il2ra, P01589
# Sequence (P01589 whole entry): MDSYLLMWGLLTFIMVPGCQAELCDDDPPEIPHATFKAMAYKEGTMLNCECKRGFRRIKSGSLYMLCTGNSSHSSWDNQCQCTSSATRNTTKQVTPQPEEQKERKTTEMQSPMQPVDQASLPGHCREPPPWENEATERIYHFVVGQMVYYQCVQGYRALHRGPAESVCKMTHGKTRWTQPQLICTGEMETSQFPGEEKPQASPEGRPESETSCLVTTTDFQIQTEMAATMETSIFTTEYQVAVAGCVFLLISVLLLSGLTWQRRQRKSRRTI
# assayExplanation: yeast display titration
A selection follows. How many sequences the whole screen found active is unknown.
measureName: apparent Kd

What value of measured apparent Kd is listed for il2ra_site1_1z92_normal_mot_HHH_b1_08597_af2_000000202_0001_42_56_H_._6e12af4a48b4634929ba45889b8be782_0001_0001_0000600034_0000001_0 (protein) NVEWAIENLERLARLQGNPEVERVLRRVLELLKKNEEEAEEFLEELVRELGDKLLRLLLRMLKTA ? > 311 nM (inactive)
